Data origin: BigSolDB 2.1

Settings: in isobutanol, 283.15 K
measurement.name: solubility (mole fraction)

GET /values?readout=solubility (mole fraction)&item= "O=c1[nH]c2ccccc2n1CCCN1CCC(n2c(=O)[nH]c3cc(Cl)ccc32)CC1"
1.35e-05

----------
Details: in methanol, 298.15 K
measurement.name: solubility (mole fraction)
Returns: the value as a bare number; no unit string appended.

GET /values?readout=solubility (mole fraction)&item= "O=c1[nH]c2ccccc2n1CCCN1CCC(n2c(=O)[nH]c3cc(Cl)ccc32)CC1"
2.07e-05

----------
Conditions: in DMAc, 318.15 K
measurement.name: solubility (mole fraction)
Returns: the value as a bare number; no unit string appended.

GET /values?readout=solubility (mole fraction)&item= "O=c1[nH]c2ccccc2n1CCCN1CCC(n2c(=O)[nH]c3cc(Cl)ccc32)CC1"
0.00262
